abundance fitness values for the variants below.
B1: Zinc finger MYM-type protein 6, residues 427 to 504; numbered along this chain, O95789 (parent)
chain: KLKCQHCNHLFATKPELLFYKGKMFLFCGKNCSDEYKKKNKVVAMCDYCKLQKIIKETVRFSGVDKPFCSEVCKFLSA

Variants of: B1
Assay: abundance fitness (aPCA) (normalised: wild type 0, dead -1); higher = more abundant; growth selection in yeast, the domain comes from the species named
Conditions: Homo sapiens
Give the value as a plain number.

• D65N = -0.141

Field abundance fitness (entry "D34M" ) reads -0.091

abundance fitness recorded for this variant, "S62R" , is -0.01

get_value(item= "E71Q" , readout=abundance fitness) returns -0.194

From: the Human Domainome abundance scans (Beltran et al. 2025)
